Test system: EW-13;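 also: growth inhibition of EW-13 cells, read out with a cell viability assay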
Test: cells
Assay type: functional, cell-based
Conditions: Homo sapiens
Description: SANGER: Inhibition of human EW-13 cell growth in a cell viability assay.
So I've got a bunch of compounds here, and I need their IC50 values.

IC50 lookup needed for CC(=O)c1c(C)c2cnc(Nc3ccc(N4CCNCC4)cn3)nc2n(C2CCCC2)c1=O [PALBOCICLIB] , thanks. > 4 µM

And the next one, O=c1cc(N2CCOCC2)oc2c(-c3cccc4c3sc3ccccc34)cccc12 ? > 2 µM

And the next one, NC(=O)c1ncn([C@@H]2O[C@H](COP(=O)(O)O)[C@@H](O)[C@H]2O)c1N ? > 2000 µM

And the next one, Cn1cc(/C=C2\C(=O)Nc3cccnc32)c2ccccc21 ? > 2 µM

And the next one, Cc1[nH]c(/C=C2\C(=O)Nc3ccc(S(=O)(=O)Cc4c(Cl)cccc4Cl)cc32)c(C)c1C(=O)N1CCC[C@@H]1CN1CCCC1 [PHA-665752] ? > 2 µM

And the next one, Cc1nc(Nc2ncc(C(=O)Nc3c(C)cccc3Cl)s2)cc(N2CCN(CCO)CC2)n1 [DASATINIB] ? > 1.28 µM

And the next one, C[C@]12O[C@H](C[C@]1(O)CO)n1c3ccccc3c3c4c(c5c6ccccc6n2c5c31)CNC4=O [LESTAURTINIB] ? > 2 µM

And the next one, CCn1c(-c2nonc2N)nc2cnc(Oc3cccc(NC(=O)c4ccc(OCCN5CCOCC5)cc4)c3)cc21 [GSK-269962A] ? > 2.5 µM

And the next one, COc1cc(Nc2c(C#N)cnc3cc(OCCCN4CCN(C)CC4)c(OC)cc23)c(Cl)cc1Cl [BOSUTINIB] ? > 2 µM
